- Experimental System: Putative nitroreductase (Staphylococcus saprophyticus subsp. saprophyticus (strain ATCC 15305 / DSM20229 / NCIMB 8711 / NCTC 7292 / S-41)) (UniProt Q4A0P1)
- Sequence (Q4A0P1 as listed by the source): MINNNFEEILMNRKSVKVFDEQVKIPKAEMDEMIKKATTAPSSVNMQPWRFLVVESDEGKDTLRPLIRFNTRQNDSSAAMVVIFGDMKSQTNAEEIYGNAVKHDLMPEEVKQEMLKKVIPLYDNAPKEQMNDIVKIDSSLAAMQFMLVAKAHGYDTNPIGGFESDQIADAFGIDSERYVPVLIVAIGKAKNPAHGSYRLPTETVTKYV
- Method Description: Substrate activity at Staphylococcus saprophyticus nitroreductase assessed as ratio of Kcat/Km up to 80 mM using NADH as cofactor relative to CB1954/NfsB
Each record here notes measured fold change (FC).
Just the number, please, no unit attached.

Consider the reported fold change (FC) for these compounds:
NC(=O)c1cc(N(CCCl)CCCl)c([N+](=O)[O-])cc1[N+](=O)[O-] 1.67
CC(=O)Nc1cc([N+](=O)[O-])cc([N+](=O)[O-])c1 17.6

Q) Which fold change (FC) value is on record for NC(=O)c1cc(N2CC2)c([N+](=O)[O-])cc1[N+](=O)[O-] ?
A) 0.38

Q) Which value of fold change (FC) has been reported for CCN(C(C)=O)c1cc([N+](=O)[O-])cc([N+](=O)[O-])c1 in the records?
A) 20.9

Source of measurements: ChEMBL document CHEMBL4393661
